# maps each entry to its binding signal
- target_or_test_system: PF10_0075 D1ext (PF3D7_1007700, AP2 domain transcription factor AP2-I) (Plasmodium falciparum) (UniProt Q8IJW6)
- Sequence: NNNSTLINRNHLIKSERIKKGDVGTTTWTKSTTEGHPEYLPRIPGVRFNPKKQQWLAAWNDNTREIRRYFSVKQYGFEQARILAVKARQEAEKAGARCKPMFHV
- condition_description: PBM; highest protein concentration obtained; buffer not given; scale: PBM E-score of the seed 8-mer
endpoint_name: binding signal

sequence_data | endpoint_name | reported_value
RGGTCGTTA / TAACGACCY [PF10_0075_D1 Secondary motif 2] | binding signal | > 0.45
GGTTCCGA (double strand) [PF10_0075_D1 Secondary motif 5] | binding signal | > 0.45
GGGTCGACCC (double strand) [PF10_0075_D1 primary motif] | binding signal | 0.495
TCGGKGCA / TGCMCCGA [PF10_0075_D1 Secondary motif 1] | binding signal | > 0.45
GTCGCGAC (double strand) [PF10_0075_D1 Secondary motif 3] | binding signal | > 0.45

----------
- target_or_test_system: PF10_0075 D3ext (PF3D7_1007700, AP2 domain transcription factor AP2-I) (Plasmodium falciparum) (UniProt Q8IJW6)
- Sequence: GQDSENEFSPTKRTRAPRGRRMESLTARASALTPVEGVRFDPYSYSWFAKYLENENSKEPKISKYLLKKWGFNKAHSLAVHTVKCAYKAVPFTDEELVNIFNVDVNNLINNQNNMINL
- condition_description: PBM; highest protein concentration obtained; buffer not given; scale: PBM E-score of the seed 8-mer
Measured binding signal values are reported for all entries that follow.

sequence_data | binding signal
ATATGCAC (double strand) [PF10_0075_D3 Secondary motif 3] | > 0.45
GTGCGKTA / TAMCGCAC [PF10_0075_D3 Secondary motif 2] | > 0.45
GTGCGCAC (double strand) [PF10_0075_D3 Secondary motif 1] | > 0.45
GTGCAA (double strand) [PF10_0075_D3 Secondary motif 4] | > 0.45
GTGCACTA (double strand) [PF10_0075_D3 primary motif] | 0.496

----------
sequences and their reported binding signal
- target_or_test_system: PFD0985w D2ext (ApiAP2) (Plasmodium falciparum)
- Sequence: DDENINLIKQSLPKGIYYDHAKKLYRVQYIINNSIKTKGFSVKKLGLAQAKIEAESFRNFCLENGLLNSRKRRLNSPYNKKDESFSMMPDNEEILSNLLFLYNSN
- condition_description: PBM; highest protein concentration obtained; buffer not given; scale: PBM E-score of the seed 8-mer

sequence_data | binding signal
GTGYNYACAC / GTGTRNRCAC [PFD0985w_D2 Secondary motif 2] | > 0.45
GTGTTACAC (double strand) [PFD0985w_D2 primary motif] | 0.496
CCACACAC (double strand) [PFD0985w_D2 Secondary motif 3] | > 0.45
WATTWCAC (double strand) [PFD0985w_D2 Secondary motif 1] | > 0.45

Where these numbers come from: paper PMC2965767
